system: 786-0 renal; assay: NCI tumour cell line growth inhibition, 48 h; in the data active = GI50 below about 0.43 µM; inactive = the rest
Outcome codes: active, inactive

compound=COC(=O)Nc1nc2ccc(Oc3ccc(NC(=O)Nc4cccc(Cl)c4)cc3)cc2[nH]1 system_name="786-0 renal" class_assignment=inactive
compound=NC(=O)Oc1cc(OC(N)=O)cc(N(CCCl)CCCl)c1 system_name="786-0 renal" class_assignment=inactive
compound=COc1ccc(F)cc1C(=O)c1cnc(NC2CCN(S(C)(=O)=O)CC2)nc1N system_name="786-0 renal" class_assignment=inactive
compound=C/C(=C\c1ccn(-c2ccc(N)cc2)n1)[C@@H]1C[C@@H]2O[C@]2(C)CCC[C@H](C)[C@H](O)[C@@H](C)C(=O)C(C)(C)[C@@H](O)CC(=O)O1 system_name="786-0 renal" class_assignment=active
compound=CN1CCN(Cc2ccc(Nc3ncc(Cl)c(Nc4ccccc4S(=O)(=O)N(C)C)n3)cc2)CC1 system_name="786-0 renal" class_assignment=active
compound=COc1cnc2c(c1)C(=O)c1c-2n(CCCN2CCN(C)CC2)c(=O)c2cc(Cl)ccc12 system_name="786-0 renal" class_assignment=inactive
compound=COc1cccc2c1c1nc3cc(C)c(C)cc3nc1n2CCN(C)C system_name="786-0 renal" class_assignment=inactive
compound=Cc1ccc(NC(=O)c2ccnc(N3CCCC3)c2)cc1-c1ccc(C(=O)NCC2CC2)cc1 system_name="786-0 renal" class_assignment=inactive
compound=C[C@]12CCC(=O)C=C1CC[C@@H]1[C@@H]2CC[C@]2(C)C(=O)/C(=C/c3cccc(OCCN4CCOCC4)c3)C[C@@H]12 system_name="786-0 renal" class_assignment=inactive
compound=O=C1/C(=C/C(Cl)=C/c2ccccc2)SC(=S)N1CCc1ccc(O)cc1 system_name="786-0 renal" class_assignment=inactive
compound=C/C(=C\c1c[nH]c2ccccc12)[N+](=O)[O-] system_name="786-0 renal" class_assignment=inactive
compound=COc1cc2c(cc1OC)[C@@]1(C)C(=O)c3cc4c(cc3[C@H]1N(C)C2=O)OCO4 system_name="786-0 renal" class_assignment=inactive
compound="CC[C@H](C)C(=O)O[C@H]1CCC=C2C=C[C@H](C)C(CCC3C[C@@H](O)CC(=O)O3)[C@H]21 (some centres not stated)" system_name="786-0 renal" class_assignment=inactive
compound=Cc1ccc2sc3c(NCCCNCCO)nc4ccccc4c3c(=O)c2c1 system_name="786-0 renal" class_assignment=inactive
compound=Cc1cccc(N=C2c3cc([N+](=O)[O-])ccc3-c3c2cc([N+](=O)[O-])cc3[N+](=O)[O-])c1 system_name="786-0 renal" class_assignment=inactive
compound=CCCC(=O)NNc1[nH]c(-c2ccc(OC)cc2)cc1C(=O)OCC system_name="786-0 renal" class_assignment=inactive
compound="[N-]=[N+]=CC(=O)OCC(N)C(=O)O (configuration not stated)" system_name="786-0 renal" class_assignment=inactive

Where do the numbers come from? From PubChem BioAssay (NCI).
